Here, each record is paired with measured aggregation suppression score data.
- Test Protocol: 75Q-TubH aggregate inhibition, S. cerevisiae, yeast (AID 1616)
- Protocol Conditions: S. cerevisiae 75Q-TubH polyglutamine aggregation suppression; stronger effect = higher value
// return a plain number; no unit text

In the examples that follow, each entry is paired with its recorded aggregation suppression score.
>>> data_value("O=C1OCCN1/N=C/c1ccc([N+](=O)[O-])o1")
0.223
>>> data_value("COc1ccc(CCN2CCC(Nc3nc4ccccc4n3Cc3ccc(F)cc3)CC2)cc1")
1.26
>>> data_value("CCCCOc1ccc(C(=O)CCN2CCCCC2)cc1")
1.27

GET /value?item= "CNC[C@H](O)c1cccc(O)c1" &field=aggregation suppression score returns 1.2

GET /value?item= CCCN(CCC)C(=O)C(CCC(=O)O)NC(=O)c1ccccc1 (stereo not given) &field=aggregation suppression score returns 1.2

GET /value?item= "CC(=O)NO" &field=aggregation suppression score returns 1.09

GET /value?item= "S=P(N1CC1)(N1CC1)N1CC1" &field=aggregation suppression score returns 0.449

GET /value?item= Nc1c(Br)cc(Br)cc1CNC1CCC(O)CC1 (stereo not given) &field=aggregation suppression score returns 1.15

GET /value?item= C1CCC(C(CC2CCCCN2)C2CCCCC2)CC1 (stereo not given) &field=aggregation suppression score returns 0.885

GET /value?item= "Cc1c(C(N)=O)cc([N+](=O)[O-])cc1[N+](=O)[O-]" &field=aggregation suppression score returns 0.968

GET /value?item= "Cc1cccc(N(C)C(=S)Oc2ccc3ccccc3c2)c1" &field=aggregation suppression score returns 0.257

GET /value?item= "Nc1ccc(N=Nc2ccccc2)c(N)n1" &field=aggregation suppression score returns 1.49

GET /value?item= CC(Cc1cccc(C(F)(F)F)c1)NCCOC(=O)c1ccccc1 (stereo not given) &field=aggregation suppression score returns 1.08

GET /value?item= CN1CCCN=C1COC(=O)C(O)(c1ccccc1)C1CCCCC1 (stereo not given) &field=aggregation suppression score returns 1.26

GET /value?item= "CC(=O)NS(=O)(=O)c1ccc(N)cc1" &field=aggregation suppression score returns 1.16

###

- System: F380Y
- Test Protocol: BK channel mutant inhibitors and activators – cell-based, U2OS BacMam, thallium flux, beta subunits, selectivity assay, profiling panel (AID 1259406);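 note: initial slope of Thallos dye fluorescence rise after thallium is added; log ratio against the mean of 0.3% DMSO vehicle wells on the same plate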
- Protocol Conditions: U2OS BacMam BK variants, at 30 µM
Here, each record is paired with measured log fold change Tl+ flux data.
// return a plain number; no unit text

In the examples that follow, each entry is paired with its recorded log fold change Tl+ flux.
>>> data_value("CC(C)c1ccc2oc3nc(N)c(C(=O)O)cc3c(=O)c2c1")
0.0548
>>> data_value("C#C[C@]1(O)CC[C@H]2[C@@H]3CCc4cc(O)ccc4[C@H]3CC[C@@]21C")
0.0259
>>> data_value("CCN1CCCC1CNC(=O)c1cc(S(=O)(=O)CC)c(N)cc1OC (centres undefined)")
0.00396

Please turn your attention to the following entry.
GET /value?item= CCOC(=O)C1=C(C)NC(C)=C(C(=O)OC)C1c1cccc(Cl)c1Cl (centres undefined) &field=log fold change Tl+ flux returns 0.00922

###

- Test Protocol: restoration of touch response, mutant HTT neurons – whole organism, C. elegans mechanosensory neurons, N-terminal huntingtin (AID 1599)
- Protocol Conditions: C. elegans polyQ-huntingtin mechanosensory neurons, stronger effect = higher value
Results with a measured potency or affinity are listed apart.
Tick t if rescue above control is 0 or greater. Tick f if rescue above control is less than 0.

Solved cases below.
>>> assigned_label("NC(=O)N/N=C/c1ccc([N+](=O)[O-])o1")
"t"
>>> assigned_label("Oc1c(Cl)cc(Cl)cc1Sc1cc(Cl)cc(Cl)c1O")
"t"
>>> assigned_label("O=C(COc1ccc(Cl)cc1)N1CCN(Cc2ccc3c(c2)OCO3)CC1")
"t"
>>> assigned_label("Cc1ccccc1OCC(O)CO (stereo not drawn)")
"f"

**Q:** Say whether CCC(Cc1c(I)cc(I)c(N)c1I)C(=O)O (stereo not drawn) shows rescue above control of 0 or more.
**A:** f

**Q:** Say whether "O=C(OCc1ccccc1)c1ccccc1" shows rescue above control of 0 or more.
**A:** t

**Q:** Say whether "C[N+](C)(C)CCOC(N)=O" shows rescue above control of 0 or more.
**A:** t

**Q:** Say whether "Oc1c(Br)cc(Br)c2cccnc12" shows rescue above control of 0 or more.
**A:** t

**Q:** Say whether "CC(=O)Nc1ccc(O)cc1" shows rescue above control of 0 or more.
**A:** t

**Q:** Say whether CCN(CC)CCOC(=O)C(Cc1cccc2ccccc12)CC1CCCO1 (stereo not drawn) shows rescue above control of 0 or more.
**A:** t

**Q:** Say whether "CCCCOC(=O)c1ccc(N)cc1" shows rescue above control of 0 or more.
**A:** t

**Q:** Say whether CCn1cc(C(=O)O)c(=O)c2cc(F)c(N3CCNC(C)C3)c(F)c21 (stereo not drawn) shows rescue above control of 0 or more.
**A:** t

**Q:** Say whether "CCCCOc1ccc(OCCCN2CCOCC2)cc1" shows rescue above control of 0 or more.
**A:** t

**Q:** Say whether "CCN(CC)CCOc1ccc(/C(=C(\Cl)c2ccccc2)c2ccccc2)cc1" shows rescue above control of 0 or more.
**A:** t

**Q:** Say whether "COc1ccc(NS(=O)(=O)c2ccc(N)cc2)nn1" shows rescue above control of 0 or more.
**A:** t

**Q:** Say whether "CCOC(N)=O" shows rescue above control of 0 or more.
**A:** f

**Q:** Say whether "CC(=O)NO" shows rescue above control of 0 or more.
**A:** f

**Q:** Say whether "Cn1c(=O)c2c(ncn2CCO)n(C)c1=O" shows rescue above control of 0 or more.
**A:** f

**Q:** Say whether CCCCCC(C)N (stereo not drawn) shows rescue above control of 0 or more.
**A:** t

**Q:** Say whether C=CCSCC1Nc2cc(Cl)c(S(N)(=O)=O)cc2S(=O)(=O)N1 (stereo not drawn) shows rescue above control of 0 or more.
**A:** t

**Q:** Say whether "CCN(CC)CCOCCOC(=O)C1(c2ccccc2)CCCC1" shows rescue above control of 0 or more.
**A:** f

**Q:** Say whether "Nc1ccc(N=Nc2ccccc2)c(N)n1" shows rescue above control of 0 or more.
**A:** f

**Q:** Say whether "CO[C@]12C[C@@H](COC(=O)c3cncc(Br)c3)CN(C)[C@@H]1Cc1cn(C)c3cccc2c13" shows rescue above control of 0 or more.
**A:** t

**Q:** Say whether Nc1nc2c(c(=O)[nH]1)N(C=O)C(CNc1ccc(C(=O)N[C@@H](CCC(=O)O)C(=O)O)cc1)CN2 (stereo partly drawn) shows rescue above control of 0 or more.
**A:** f

**Q:** Say whether "OCc1ccccc1O" shows rescue above control of 0 or more.
**A:** t

**Q:** Say whether "CCCOc1ccccc1-c1nc2n[nH]nc2c(=O)[nH]1" shows rescue above control of 0 or more.
**A:** t

**Q:** Say whether "COc1ccc2[nH]cc(CCNC(C)=O)c2c1" shows rescue above control of 0 or more.
**A:** t

**Q:** Say whether "O=C(CCBr)N1CCN(C(=O)CCBr)CC1" shows rescue above control of 0 or more.
**A:** t
